Test system: PC-3 prostate
Test summary: NCI-60 one-dose screen, 48 h (100 = growth as untreated, 0 = no growth, -100 = all killed)
Condition summary: 10 µM unless noted
This is part of a sample that, as a whole, favours compounds with a hit. Of some 83,000 tested, about 20% had one in any assay.
growth under 80% gets criterion met, anything at or over 80% gets criterion not met.

COc1cc2oc(-c3cccc(C(=O)Nc4ccc(Br)cc4)c3)cc(=O)c2c(OC)c1OC :: criterion met
Cc1nc2sccn2c1-c1cn2ccsc2n1 :: criterion not met
O=C1Nc2cc(-c3cccc([N+](=O)[O-])c3)ccc2/C1=C/c1ccc[nH]1 :: criterion not met
O=C(NO)c1ccc(-n2nc(-c3ccccc3)c3ccccc32)cc1 :: criterion met
O=[N+]([O-])CC(c1ccccc1F)c1c[nH]c2ccccc12 (stereo unspecified) :: criterion not met
CC(=O)N1N=C(c2ccc(-n3ccc(C(F)(F)F)n3)c(F)c2)CC1c1ccc[nH]1 (stereo unspecified) :: criterion not met
O=C1Nc2cc(-c3cccc(O)c3)ccc2/C1=C/c1ccc[nH]1 :: criterion met
COC(=O)/C=C1\S/C(=N\NC(=O)c2cc3ccc2/C=C\c2ccc(cc2)/C=C\3)N(c2ccccc2)C1=O :: criterion met
CCOC(=O)/C(C#N)=C1/NNC(=Nc2cccnc2)S1 :: criterion not met
Nc1c(C(=O)Nc2cccc3cnccc23)sc2nc3c(cc12)C(=O)CCC3 :: criterion met
N#C/C(=C\c1ccc([N+](=O)[O-])s1)c1nc2cc(Cl)ccc2s1 :: criterion met
NC(=O)CSSCC(N)=O :: criterion not met
CCN(CC)c1ccc(/C=N/NC(=O)CSc2nc3ccccc3c(=O)n2CCc2ccc(S(N)(=O)=O)cc2)c(O)c1 :: criterion met

----------
Measured growth, listed per entry for reference.
System: MALME-3M melanoma
Test summary: NCI-60 one-dose screen, 48 h (100 = growth as untreated, 0 = no growth, -100 = all killed)
Condition summary: 10 µM unless noted
Method: Cells are grown in 96 well plates and exposed to the test compound for 48 hours. Compounds are tested at a single concentration, which is 10^-5 M for most compounds. The reported endpoint is percent growth (GI% or GIPRCNT), where numbers from 0 - 100% represent growth inhibition, and numbers from -100% - 0 represent cell death. For example, a value of 40 represents 60% growth inhibition. A value of 0 means no net growth occurred over the course of the experiment. […]
The panel holds about 83,000 compounds, 20% with a hit somewhere; the sample as a whole holds those more often. Calls of active or inactive are those of the source. How the source made its calls: active means growth percent below 10; inactive means the rest.
Measured property: growth

CN(C)c1ccc(Nc2c3ccccc3nc3cc(NC(=O)CCN4CCCC4)ccc23)cc1 :: -90.9% (active)
Cc1ccc(NC(=O)c2cc(-c3nc4ccccc4s3)c(=O)n(NS(=O)(=O)c3ccc(Cl)cc3)c2N)cc1 :: 112% (inactive)
CCOC(=O)c1nc2c3ccccc3ccn2c1C(=O)OCC :: 103% (inactive)
C=C(C)[C@@H]1CC[C@]2(CN)CC[C@]3(C)[C@H](CC[C@@H]4[C@@]5(C)CCCNC(C)(C)[C@@H]5CC[C@]43C)[C@@H]12 :: -70.5% (active)
COc1cc2c(=O)n(CCN)c3c4cc5c(cc4ccc3c2cc1OC)OCO5 :: -72.3% (active)
O=C1c2cccc3c(-c4ccc5c(c4)ncn5C4CCCCC4)ccc(c23)C(=O)N1CCO :: 105% (inactive)
CC(Oc1ccc(C(=O)O)cc1C(F)(F)F)c1ccc(Oc2ccccc2)cn1 (configuration not stated) :: 101% (inactive)
